Reference for the values: patent US20230390401A1

- Tested on: A549 lung cancer cells
- Experiment Notes: Cytotoxicity assay (CellTiter-Glo 2.0 viability)
- Test Conditions: read-out: EC50 cytotoxicity, prodrug combined with PEG-DPTz; A549 cells, prodrug + excess PEG-DPTz (c=80 μM), 72 h
Listing of entries alongside the reported pEC50.
Reminder that pEC50 is minus the log10 of a molar concentration.

Problem: Requested field: pEC50. Item: [C-]#[N+]CCCOC(=O)N1C2CN3C4=C(C(=O)C(N)=C(C)C4=O)C(COC(N)=O)C3(OC)C21 (centres unmarked) [ICPrc-mmC]
Result: 6.61

New cases:
Problem: Requested field: pEC50. Item: [C-]#[N+]CCCOC(=O)NC1CC(OC2CC(O)(C(=O)CO)Cc3c(O)c4c(c(O)c32)C(=O)c2c(OC)cccc2C4=O)OC(C)C1O (centres unmarked) [ICPrc-dox]
Result: 6.78
